# subject.of.test: hemagglutinin (HA) of live influenza A/Solomon Islands/3/06 (H1N1) virus (influenza A virus A/Solomon …)
# procedure.summary: cell-based or functional assay
Rule for this label: 1 (yes) means % Neutralization is less than 20%; 0 (no) means % Neutralization is at least 20%.

Before answering, review these 2 worked examples.
TCN-538 (3206_O17) (antibody, V domains shown) VH: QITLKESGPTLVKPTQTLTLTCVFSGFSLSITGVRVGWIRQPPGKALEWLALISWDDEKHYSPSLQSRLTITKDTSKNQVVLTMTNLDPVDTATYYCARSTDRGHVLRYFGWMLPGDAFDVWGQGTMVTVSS VL: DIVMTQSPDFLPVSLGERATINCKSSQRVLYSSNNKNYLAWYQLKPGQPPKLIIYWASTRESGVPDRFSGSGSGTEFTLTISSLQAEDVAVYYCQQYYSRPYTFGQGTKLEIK    0 (no)
TCN-536 (5095_N01) (antibody, V domains shown) VH: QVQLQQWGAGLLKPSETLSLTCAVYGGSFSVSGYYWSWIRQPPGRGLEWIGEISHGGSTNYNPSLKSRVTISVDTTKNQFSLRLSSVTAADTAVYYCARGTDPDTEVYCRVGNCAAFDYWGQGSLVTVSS VL: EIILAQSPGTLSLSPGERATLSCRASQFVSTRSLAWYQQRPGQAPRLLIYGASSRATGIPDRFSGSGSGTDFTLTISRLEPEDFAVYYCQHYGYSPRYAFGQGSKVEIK    0 (no)

**Query** # strict comparison: is reported % Neutralization < 20%? input = TCN-558 (5248_H10b) (antibody, V domains shown) VH: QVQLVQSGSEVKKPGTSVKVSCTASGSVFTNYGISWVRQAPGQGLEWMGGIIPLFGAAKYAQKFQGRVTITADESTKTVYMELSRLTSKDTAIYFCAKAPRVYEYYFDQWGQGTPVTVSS VL: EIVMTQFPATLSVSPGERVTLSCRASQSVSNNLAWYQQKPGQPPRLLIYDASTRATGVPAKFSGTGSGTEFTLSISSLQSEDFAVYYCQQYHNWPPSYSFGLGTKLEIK
**Result** 0 (no)

**Query** Now the same for TCN-552 (5249_I23) (antibody, V domains shown) VH: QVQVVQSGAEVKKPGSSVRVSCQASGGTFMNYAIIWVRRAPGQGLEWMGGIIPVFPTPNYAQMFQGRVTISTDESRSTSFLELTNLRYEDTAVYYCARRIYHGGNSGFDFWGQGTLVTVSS VL: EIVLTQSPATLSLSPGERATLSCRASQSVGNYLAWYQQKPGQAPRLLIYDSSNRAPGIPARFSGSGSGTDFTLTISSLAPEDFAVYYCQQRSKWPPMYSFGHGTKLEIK
**Result** 1 (yes)

**Query** Now the same for TCN-534 (5249_B02) (antibody, V domains shown) VH: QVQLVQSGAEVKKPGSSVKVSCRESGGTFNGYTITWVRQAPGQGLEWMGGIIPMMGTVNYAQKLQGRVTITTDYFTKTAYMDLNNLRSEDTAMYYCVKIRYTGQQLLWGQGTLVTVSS VL: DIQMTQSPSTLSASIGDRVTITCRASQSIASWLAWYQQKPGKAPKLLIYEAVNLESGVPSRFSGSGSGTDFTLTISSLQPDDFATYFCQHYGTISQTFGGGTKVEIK
**Result** 0 (no)
